- Test system: PC-3
- Experiment description: NCI tumour cell line growth inhibition, 48 h
Activity calls are given as the source filed them. Cut-off read from the data, not from the text of the source: active = GI50 up to about 1.1 µM and inactive = higher.
# output must be one of True = active, False = inactive

Request: Could you check what this test reported for C/C=C/[C@H](O[Si](C)(C)C(C)(C)C)[C@@H](O)/C=C/C(=O)OCC ?
Response: False

Request: Also CCOC(=O)C(NC(=O)c1cccc(Cl)c1)(Nc1ccc(S(=O)(=O)Nc2cc(C)nc(C)n2)cc1)C(F)(F)F (stereo not given) ?
Response: False

Request: Also CNc1cc([N+](=O)[O-])ccc1C(=O)N1CCC[C@H]1CO ?
Response: False

Request: Also Cn1c(=O)c2c(nc3n(Cc4ccccc4)c(=O)c(NCCCBr)cn23)n(C)c1=O ?
Response: False

Request: Also CCN(CC)CCCC(C)Nc1ccnc2cc(Cl)ccc12 (stereo not given) [CHLOROQUINE PHOSPHATE] ?
Response: False

Request: Also c1ccc(Nc2nn3c(CCCCCCCCc4nnc5sc(Nc6ccccc6)nn45)nnc3s2)cc1 ?
Response: False

Request: Also COc1cc2c(cc1O)NC(=O)[C@@H]1C[C@@H](O)CN1C2=O ?
Response: False

Request: Also Cc1cc(C)c(P2C(=C(O[Si](C(C)C)(C(C)C)C(C)C)C(C)(C)C)C2(c2ccccc2)c2ccccc2)c(C)c1 (stereo not given) ?
Response: False

Request: Also CCCC(=O)Nc1cc(/C=C/C(=O)N2CC(CCl)c3c2cc(O)c2[nH]cc(C)c32)n(C)c1 (stereo not given) ?
Response: True

Request: Also CSCCC(NCc1c(O)ccc2c(-c3ccccc3)cc(=O)oc12)C(=O)O (stereo not given) ?
Response: False

Request: Also O=C1c2ccccc2-c2c1c1ccccc1c(=O)n2Cc1ccco1 ?
Response: False

Request: Also CC(=O)[C@@]1(O)CC[C@H]2[C@@H]3C[C@H](C)C4=CC(=O)C=C[C@]4(C)[C@@]3(F)[C@@H](O)C[C@@]21C ?
Response: False

Request: Also S=C=Nc1ccc(CSc2nc3ccccc3[nH]2)cc1 ?
Response: False

Request: Also CC(=O)Nc1nnc(S(=O)(=O)NC(=S)Nc2ccc(Cl)cc2)s1 ?
Response: False

Request: Also Cc1ccc2c(c1)nc1n2C(c2c(F)cccc2F)SC1 (stereo not given) ?
Response: False

Request: Also COc1cc2cc(C(=O)N3CC(CCl)c4ccc([N+](C)(C)Cc5ccc([N+](=O)[O-])cc5)cc43)[nH]c2c(OC)c1OC (stereo not given) ?
Response: False

Request: Also Nc1nc(NNc2ccccc2F)cc(=O)[nH]1 ?
Response: False

Request: Also C=C(c1ccc2[nH]c(NC(=O)OC)nc2c1)c1cccs1 ?
Response: True

Request: Also Cn1c(=O)oc2cc(C(O)CN3CCN(Cc4ccc5c(c4)OCO5)CC3)ccc21 (stereo not given) ?
Response: False

Request: Also CO/C(=N\N=C\c1ccc(Cl)cc1Cl)c1ccncc1 ?
Response: False

====

For each record, write down the corresponding GI50.
- Tested on: COLO 205
- Experiment description: NCI tumour cell line growth inhibition, 48 h
Calls of active or inactive are those of the source. Rule as the data show it: active = GI50 up to about 1.1 µM and inactive = higher.

Request: // map O=C(CCN1CCCCC1CO)Nc1ccc2c(c1)C(=O)c1ccc(NC(=O)CCN3CCCCC3CO)cc1C2=O (stereo not given) to recorded GI50 (system: COLO 205)
Response: 7.71 µM (inactive)

Request: Also O=C1OC(C2Cc3ccc4c(c3C2=O)CCC4)c2ccccc21 (stereo not given) ?
Response: 20.7 µM (inactive)

Request: Also CC(C)(C)C(=O)O[C@H]1C=C[C@@H](O)[C@@H]2[C@H]1[C@@H]1C=C[C@H]2C1 ?
Response: 6.03 µM (inactive)

Request: Also O=C(O)c1ccc(CI)cc1 ?
Response: 15.4 µM (inactive)

Request: Also Nc1ccc(/N=N\c2ccc(-c3ccc(O)cc3)cc2)c2ccc(S(=O)(=O)O)cc12 ?
Response: > 100 µM (inactive)

====

- System: MCF7
- Experiment description: NCI tumour cell line growth inhibition, 48 h
Calls of active or inactive are those of the source. No stated cut-off is given here; in the data, active = GI50 up to about 1.1 µM and inactive = higher.
# output must be one of active, inactive

Request: Could you check what this test reported for CCOC(=O)c1nc2ccc(C(F)(F)F)cc2nc1Nc1ccc(OC)cc1 ?
Response: inactive

Request: Also CCCCOP(=O)(OCCCC)C(NS(=O)(=O)c1ccccc1)(C(=O)OCC)C(F)(F)F (stereo unspecified) ?
Response: inactive

Request: Also C=C(c1ccc2[nH]c(NC(=O)OC)nc2c1)c1cccs1 ?
Response: active

Request: Also CSc1nc(SC)c2ncn(C3CC(Oc4ccc(C)cc4)C(COc4ccc(C)cc4)O3)c2n1 (stereo unspecified) ?
Response: inactive

Request: Also c1ccc(-c2nnc(CCCCCCCCc3nnc(-c4ccccc4)o3)o2)cc1 ?
Response: inactive

Request: Also C=CCC1CC(n2cc(C)c(=O)[nH]c2=O)OC1CO[Si](C)(C)C(C)(C)C (stereo unspecified) ?
Response: inactive

Request: Also Nc1ncnc2c1nnn2C1OC(CO)C(O)C1O (stereo unspecified) ?
Response: inactive

Request: Also Cc1cc(C)c(P2C(=C(O[Si](C(C)C)(C(C)C)C(C)C)C(C)(C)C)C2(c2ccccc2)c2ccccc2)c(C)c1 (stereo unspecified) ?
Response: inactive

Request: Also Oc1nc2c(c(-c3ccccc3Cl)n1)COC/C2=C\c1ccccc1Cl ?
Response: inactive

Request: Also COC(=O)[C@@H]1C=C[C@H](OC2OC(COC(C)=O)C(OC(C)=O)C(OC(C)=O)C2OC(C)=O)n2c(=O)c3ccccc3c(=O)n21 (stereo partly specified) ?
Response: inactive

Request: Also CC(CC(C)(C)[N+](C)(C)C)[N+](C)(C)C (stereo unspecified) ?
Response: inactive

Request: Also CC1=NN(c2ccccc2)C(=O)/C1=C\c1c(C)[nH]n(-c2ccccc2)c1=O ?
Response: inactive

Request: Also CN(C)c1ccc(C(Cc2ccccc2)C2NC(=S)NC2=O)cc1 (stereo unspecified) ?
Response: inactive

Request: Also OCC1c2ccccc2-n2nc(-c3ccccc3)c(O)c21 (stereo unspecified) ?
Response: inactive

Request: Also C/C(=N\Nc1nc2ccccc2s1)c1cc(C)ncn1 ?
Response: active

Request: Also Cc1cn(C2CC(O)C(Cn3cc(Cn4nc(Br)c(=O)[nH]c4=O)nn3)O2)c(=O)[nH]c1=O (stereo unspecified) ?
Response: inactive

Request: Also CCOP(=O)(OCC)C(C)(C)N(C)/C(F)=N/C(F)(F)F ?
Response: inactive

Request: Also O=C(O)CN1C(=O)c2ccc(NC(=O)C(=O)O)cc2S1(=O)=O ?
Response: inactive

Request: Also COc1ccc(CNc2nc(NCc3ccc(OC)cc3)nc(NC3CCCCC3)n2)cc1 ?
Response: active

Request: Also CCCCCCCCCCCCCCCCNc1nc(=O)n(C2CC(O)C(CO)O2)cc1F (stereo unspecified) ?
Response: inactive

Request: Also NCC(=O)C(O)C(O)C(O)CO (stereo unspecified) ?
Response: inactive

====

- Tested on: RPMI-8226
- Experiment description: NCI tumour cell line growth inhibition, 48 h
Active and inactive are the calls of the source. No stated cut-off is given here; in the data, active = GI50 up to about 1.1 µM and inactive = higher. Where a SMILES comes first, the peptide text is derived from it. The star is where a group is joined. Boc = CC(C)(C)OC(=O)*
# output must be one of yes (active), no (inactive)

Request: Could you check what this test reported for CCSCN(C)c1nc(N(C)C)nc(N(C)C)n1 ?
Response: no

Request: Also CC(=O)O[C@H]1CCC2[C@@H]3CCC4Nc5oncc5C[C@]4(C)C3CC[C@@]21C (some centres not stated) ?
Response: no

Request: Also CN(C)CCOC1(Cc2ccc(Cl)cc2Cl)CCC(C(C)(C)C)CC1 (configuration not stated) ?
Response: no

Request: Also COC(=O)C(Cc1c[nH]c2ccccc12)NC1=Nc2ccncc2S(=O)(=O)N1c1cccc(OC(C)C)c1 (configuration not stated) ?
Response: no

Request: Also CCN(CC)CC(C)C(=O)/C=C/c1ccc(C)cc1 (configuration not stated) ?
Response: no

Request: Also Cc1ccc(C(=O)O/N=C2/CCCCC2CN(C)C)cc1 (configuration not stated) ?
Response: no

Request: Also Cc1ccc2c(c1)C1(C)OC(CC(N)C1O)O2 (configuration not stated) ?
Response: no

Request: Also NC1=NC(=O)C(CC(=O)Nc2ccc([N+](=O)[O-])cc2[N+](=O)[O-])S1 (configuration not stated) ?
Response: no

Request: Also O=C1OC2CC=CC1C2 (configuration not stated) ?
Response: no

Request: Also O=C(O)CN1CCN2CCOCCOCCN(CC1)CCN(CC(=O)O)CC2 ?
Response: no

Request: Also Cc1cc(NCCCCCCCCCC[n+]2c(C)cc(N)c3ccccc32)c2ccccc2n1 ?
Response: yes

Request: Also FC1OC2OC1C(OCc1ccccc1)C(OCc1ccccc1)C2OCc1ccccc1 (configuration not stated) ?
Response: no

Request: Also CC(=O)OCC1(C)C(OC(C)=O)CCC2(C)C(CC(OC(C)=O)C3=CCOC3=O)C(O)(CO)CCC12 (configuration not stated) ?
Response: no

Request: Also O=C1c2ccccc2C(=O)N1CCc1ncc[nH]1 ?
Response: no

Request: Also NNC(=O)CCSc1ccccc1 ?
Response: no

Request: Also Cc1ccc(-n2cc(-c3ccc(Cl)cc3)c3c(NNC(=S)NCc4ccccc4)ncnc32)cc1 ?
Response: no

Request: Also COC(=O)Nc1nc2cc(Oc3ccc4nc(NC(=O)OC)[nH]c4c3)ccc2[nH]1 ?
Response: yes

Request: Also Cc1cccc(Cn2c3c(c4cc(O)ccc42)C(=O)c2ccccc2C3=O)c1 ?
Response: no

Request: Also Cc1cc(C)c(P2C(=C(O[Si](C(C)C)(C(C)C)C(C)C)C(C)(C)C)C2(c2ccccc2)c2ccccc2)c(C)c1 (configuration not stated) ?
Response: no

Request: Also O=C(CCN1CCCC1)CC(c1ccccc1)c1c(O)c2ccccc2oc1=O (configuration not stated) ?
Response: no

Request: Also CCCCCCCCCCCC(=O)Oc1c(Cl)cc(Cl)c(OC(=O)C(=O)Oc2c(Cl)cc(Cl)c(OC(=O)CCCCCCCCCCC)c2Cl)c1Cl ?
Response: no

Request: Also CC(=O)C1COC(O)C1C (configuration not stated) ?
Response: no

Request: Also O=C(Nc1cccc([N+](=O)[O-])c1)C(=O)C(C(=O)c1ccccc1-c1ccccc1)C1OC(=O)c2ccccc21 (configuration not stated) ?
Response: no

Request: Also CC1=CC(/C=C(\C)CCCc2ccoc2)C2(OC(=O)C(C)=C2O)[C@H]2C1CC[C@@H]2C (some centres not stated) ?
Response: no

Request: Also CO/N=C(\C(=O)Nn1cn[n+](CC(=O)[O-])c1)c1csc(N)n1 ?
Response: no

Request: Also Nc1ccc(/N=N\c2ccc(-c3ccc(O)cc3)cc2)c2ccc(S(=O)(=O)O)cc12 ?
Response: no

Request: Also CC(C#N)c1cn(S(=O)(=O)c2ccccc2)c2ccccc12 (configuration not stated) ?
Response: no

Request: Also C/C(=N\NC(=[Se])N(C)C)c1ccccn1 ?
Response: yes

Request: Also Oc1nc2c(c(-c3ccccc3Cl)n1)COC/C2=C\c1ccccc1Cl ?
Response: no

Request: Also CC/C(Cl)=N\OC(=O)Nc1ccc(F)c(Cl)c1 ?
Response: no

Request: Also O=[N+]([O-])C(=C(Nc1ccccc1)Nc1ccccc1)/C(Cl)=C(\Cl)Br ?
Response: no

Request: Also CC(=O)CC(=O)CCCC(=O)Nc1ccc(Cl)cc1C ?
Response: no

Request: Also O=C(NC(CS)C(=O)O)c1cccc2c(=O)c3ccccc3[nH]c12 (configuration not stated) ?
Response: no

Request: Also COC(=O)C(C(=O)C(=O)Nc1ccc([N+](=O)[O-])cc1[N+](=O)[O-])c1nc2ccc(Cl)cc2nc1O (configuration not stated) ?
Response: no

Request: Also CC(C)(C)OC(=O)NC(Cc1ccc(O)cc1)C(=O)N1CCCC1C(=O)O (stereo not drawn) (Boc-Tyr-Pro-OH; configuration not given here) ?
Response: no

Request: Also Cc1nc2ccc(N)cc2nc1O ?
Response: no

Request: Also CSC(=S)c1ccc(C(=S)SC)cc1 ?
Response: no

Request: Also COc1ccc(/C(Cl)=C(\C=O)c2cc(OC)c(OC)c(OC)c2)cc1OC ?
Response: no

Request: Also O=C1C(Cl)=C(Oc2ccc([N+](=O)[O-])cc2)C(=O)c2c(O)ccc(O)c21 ?
Response: no

Request: Also C/C=C(/C)C(=O)O[C@@H]1CCN2CC[C@H](COC(=O)/C(=C/C)CO)C12 (some centres not stated) ?
Response: no

Request: Also N#C/C(C(=O)NCc1ccccc1)=C(/N)N1CCCC1 ?
Response: no

Request: Also O=C1C2SC34c5c2c2ccccc2n5CCC3CCCN14 (configuration not stated) ?
Response: no
